# Subject Of Test: TYK2 (Homo sapiens)
# Experiment: TYK2 degradation MSD assay in OCI-LY10 cells
# Format: cell-based
# Design: endogenous in cells; host or cells: EBV-B cells
# Test Parameters: 4 to 24 hours incubation, read-out: TYK2 MSD DC50 rating in OCI-LY10
Quantity Kind: DC50

Ask | Please report the recorded DC50 for CNc1cc(Nc2cccc(CN3CCN(Cc4ccc5c(c4)n(C)c(=O)n5C4CCC(=O)NC4=O)CC3)c2)nn2c(C(=O)NC3CC3)cnc12 (stereo not drawn) .
Reply | > 100 nM

Ask | Also CNc1cc(N2CCc3c(-c4ccc(CN5CC6(CCN(C(=O)c7ccc(Cl)c(N8CCC(=O)NC8=O)c7)CC6)C5)cn4)cccc32)nn2c(C(=O)N[C@@H]3C[C@@H]3F)cnc12 , if possible.
Reply | < 1 nM

Ask | Also CNc1cc(Nc2cc(F)cc(-c3ccc(CN4CCN(c5ccc(-c6ccc7c(c6)n(C)c(=O)n7C6CCC(=O)NC6=O)cc5)CC4)cn3)c2OC)nn2c(C(=O)N[C@@H]3C[C@@H]3F)cnc12 (stereo partly drawn) , if possible.
Reply | 1 to 10 nM

Ask | Also [2H]C([2H])([2H])NC(=O)c1nnc(Nc2ccc(C(=O)N(C)C3CCN(c4cccc5c4n(C)c(=O)n5C4CCC(=O)NC4=O)CC3)cn2)cc1Nc1cccc(F)c1OC (stereo not drawn) , if possible.
Reply | > 100 nM

Ask | Also CNc1cc(Nc2ccc(F)c(-c3ccc(Cc4ccc(-c5ccc6c(c5)n(C)c(=O)n6C5CCC(=O)NC5=O)cc4)cn3)c2OC)nn2c(C(=O)N[C@@H]3C[C@@H]3F)cnc12 (stereo partly drawn) , if possible.
Reply | 1 to 10 nM

---
Ask | Please report the recorded DC50 for CNc1cc(Nc2cccn(-c3ccc(C(=O)NCCCCc4ccc5c(c4)n(C)c(=O)n5C4CCC(=O)NC4=O)cn3)c2=O)nn2c(C(=O)N[C@@H]3C[C@@H]3F)cnc12 (stereo partly drawn) .
Reply | > 100 nM

Ask | Also CNC(=O)c1cnc(Nc2ccc(CN3CCC4(CC3)CC(Cc3ccc5c(c3)n(C)c(=O)n5C3CCC(=O)NC3=O)C4)cn2)cc1Nc1cccc(-c2ncc(F)cn2)c1OC (stereo not drawn) , if possible.
Reply | > 100 nM

Ask | Also CNC(=O)c1cnc(Nc2cc(C(=O)NCCCCCCCCc3ccc4c(c3)n(C)c(=O)n4C3CCC(=O)NC3=O)ccn2)cc1Nc1cccc(-c2ncc(F)cn2)c1OC (stereo not drawn) , if possible.
Reply | > 100 nM

Ask | Also CNC(=O)c1cnc(Nc2ccc(CN3CCC(N(C)c4cccc5c4n(C)c(=O)n5C4CCC(=O)NC4=O)CC3)cn2)cc1Nc1cccc(-c2ncc(F)cn2)c1OC (stereo not drawn) , if possible.
Reply | < 1 nM

Ask | Also CNC(=O)c1cnc(Nc2cc(C(=O)NCCCCCCc3cccc4c3n(C)c(=O)n4C3CCC(=O)NC3=O)ccn2)cc1Nc1cccc(-c2ncc(F)cn2)c1OC (stereo not drawn) , if possible.
Reply | > 100 nM

Ask | Also CNC(=O)c1cnc(Nc2ccc(CN(C)C3CCN(c4ccc5c(c4)n(C)c(=O)n5C4CCC(=O)NC4=O)CC3)cn2)cc1Nc1cccc(-c2ncc(F)cn2)c1OC (stereo not drawn) , if possible.
Reply | > 100 nM

Ask | Also CNc1cc(N2CCc3c(-c4ccc(CN5CCN(c6ccc(-c7ccc8c(c7)n(C)c(=O)n8C7CCC(=O)NC7=O)cc6)CC5)cn4)cccc32)nn2c(-c3cn(C(C)C)nn3)cnc12 (stereo not drawn) , if possible.
Reply | 1 to 10 nM

* * *

Each item that follows carries a reported DC50.
# Subject Of Test: TYK2 (Homo sapiens, UniProt P29597)
# Sequence (P29597 whole entry): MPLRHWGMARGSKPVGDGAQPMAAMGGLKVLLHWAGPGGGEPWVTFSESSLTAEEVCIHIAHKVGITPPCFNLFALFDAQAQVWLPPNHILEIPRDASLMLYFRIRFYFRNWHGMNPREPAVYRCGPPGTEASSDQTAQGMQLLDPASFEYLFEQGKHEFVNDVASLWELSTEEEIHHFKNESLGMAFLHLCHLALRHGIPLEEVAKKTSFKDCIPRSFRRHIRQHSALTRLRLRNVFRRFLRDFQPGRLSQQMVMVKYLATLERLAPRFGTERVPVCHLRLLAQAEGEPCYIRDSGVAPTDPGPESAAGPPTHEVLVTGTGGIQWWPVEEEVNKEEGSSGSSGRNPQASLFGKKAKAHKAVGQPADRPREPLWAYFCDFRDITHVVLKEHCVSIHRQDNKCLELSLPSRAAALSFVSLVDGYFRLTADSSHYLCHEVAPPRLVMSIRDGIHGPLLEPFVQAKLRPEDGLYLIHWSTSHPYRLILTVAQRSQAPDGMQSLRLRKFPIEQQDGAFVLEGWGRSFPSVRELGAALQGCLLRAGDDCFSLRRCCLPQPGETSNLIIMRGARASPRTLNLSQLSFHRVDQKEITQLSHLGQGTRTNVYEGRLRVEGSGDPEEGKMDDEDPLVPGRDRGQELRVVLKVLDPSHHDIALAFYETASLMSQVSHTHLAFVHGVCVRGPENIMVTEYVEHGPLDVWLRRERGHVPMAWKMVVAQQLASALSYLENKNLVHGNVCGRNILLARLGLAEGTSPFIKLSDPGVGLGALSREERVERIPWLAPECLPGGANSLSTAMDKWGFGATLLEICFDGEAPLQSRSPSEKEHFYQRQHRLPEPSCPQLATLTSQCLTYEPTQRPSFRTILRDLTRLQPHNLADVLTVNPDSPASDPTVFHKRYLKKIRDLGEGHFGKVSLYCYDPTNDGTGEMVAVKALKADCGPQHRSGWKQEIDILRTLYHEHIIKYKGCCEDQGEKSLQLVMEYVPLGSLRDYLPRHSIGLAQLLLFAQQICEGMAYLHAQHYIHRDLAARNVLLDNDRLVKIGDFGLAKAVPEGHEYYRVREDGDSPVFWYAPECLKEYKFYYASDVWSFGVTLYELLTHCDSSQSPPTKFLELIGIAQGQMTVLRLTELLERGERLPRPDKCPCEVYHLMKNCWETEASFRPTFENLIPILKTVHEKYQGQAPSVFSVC
# Experiment: TYK2 degradation MSD assay in OCI-LY10 cells
# Format: cell-based
# Design: endogenous in cells; host or cells: EBV-B cells
# Test Parameters: 4 to 24 hours incubation, read-out: TYK2 MSD DC50 rating in OCI-LY10
# Description: Example 3. TYK2 Degradation MSD Assay in EBV-B, OCI-LY10, and Human PBMC Cells Degradation of TYK2 in cells was quantitatively measured using Meso Scale Discovery (MSD) technology. […] The assay plates were then incubated at room temperature for 1 hour, washed 3 times with 150 μl/well TBST buffer, and 150 μl/well MSD reading buffer (MSD, R92TC-2) were added. The plates were then analyzed by an MSD reader. […]

The examples below pair each entry with its known result.
Ask | Please report the recorded DC50 for CNc1cc(-c2ccc(C(=O)NCCCCCCCCc3cccc4c3n(C)c(=O)n4C3CCC(=O)NC3=O)cc2)nn2c(C(=O)N[C@@H]3C[C@@H]3F)cnc12 (some centres unmarked) [Example K303] .
Reply | > 100 nM

Ask | Also CNC1=CC(Nc2cccc(-c3ccc(CN4CC5(CCN(c6cccc7c(C8CCC(=O)NC8=O)cccc67)CC5)C4)cn3)c2)=NC2C(C(=O)N[C@@H]3C[C@@H]3F)=CN=C12 (some centres unmarked) [Example K512] , if possible.
Reply | 1 to 10 nM

Ask | Also CNc1cc(N(C)c2cccc(-c3ccc(CN4CCN(c5ccc(-c6ccc7c(c6)n(C)c(=O)n7C6CCC(=O)NC6=O)cc5)CC4)cn3)c2)nn2c(C(=O)N[C@@H]3C[C@@H]3F)cnc12 (some centres unmarked) [Example K481] , if possible.
Reply | > 100 nM

Ask | Also CNC(=O)c1cnc(Nc2ccc(CN3CCC(N4CC(c5ccc6c(c5)n(C)c(=O)n6C5CCC(=O)NC5=O)C4)CC3)cn2)cc1Nc1cccc(-c2ncc(F)cn2)c1OC (centres unmarked) [Example K140] , if possible.
Reply | > 100 nM

Ask | Also CNc1cc(-c2cccc(C(=O)NCCCCCCCCc3cccc4c3n(C)c(=O)n4C3CCC(=O)NC3=O)c2)nn2c(C(=O)N[C@@H]3C[C@@H]3F)cnc12 (some centres unmarked) [Example K310] , if possible.
Reply | > 100 nM

Ask | Also CNC(=O)c1cnc(Nc2ccc(C(=O)NCCCCCCCCc3ccc4c(c3)n(C)c(=O)n4C3CCC(=O)NC3=O)cn2)cc1Nc1cccc(-c2ncc(F)cn2)c1OC (centres unmarked) [Example K111] , if possible.
Reply | > 100 nM

Ask | Also CNc1cc(Nc2cccc(-c3ccc(C(=O)N4CCN(c5ccc(-c6ccc7c(c6)n(C)c(=O)n7C6CCC(=O)NC6=O)cc5)CC4)cn3)c2)nn2c(C(=O)N[C@@H]3C[C@@H]3F)cnc12 (some centres unmarked) [Example K633] , if possible.
Reply | < 1 nM

Ask | Also CNC1=CC(Nc2cccc(-c3ccc(CN4CCN(CC5CCN(C(=O)c6ccc(Cl)c(N7CCC(=O)NC7=O)c6)CC5)CC4)cn3)c2)=NC2C(C(=O)N[C@@H]3C[C@@H]3F)=CN=C12 (some centres unmarked) [Example K496] , if possible.
Reply | 1 to 10 nM

Switching to the query record.
Ask | Please report the recorded DC50 for CNc1cc(Nc2cccc(-c3ccc(CN4CCN(c5ccc(-c6ccc7c(c6)n(C)c(=O)n7C6CCC(=O)NC6=O)cc5)CC4)cn3)c2)nn2c(-c3cn(C(C)C)nn3)cnc12 (centres unmarked) [Example K534] .
Reply | 1 to 10 nM

* * *

# Subject Of Test: TYK2 (Homo sapiens)
# Experiment: TYK2 degradation MSD assay in EBV-B cells
# Assay type: cell-based
# Design: endogenous in cells; host or cells: EBV-B cells
# Test Parameters: 4 to 24 hours incubation, read-out: TYK2 MSD DC50 rating in EBV-B
Each item that follows carries a reported DC50.

The examples below pair each entry with its known result.
Ask | Form entry - test system: TYK2 (Homo sapiens); read-out: DC50; molecule: CNc1cc(N2CCc3c(-c4ccc(C(=O)N5CCC(CN6CCN(c7ccc(-c8ccc9c(c8)n(C)c(=O)n9C8CCC(=O)NC8=O)cc7)CC6)CC5)cn4)cccc32)nn2c(C(=O)N[C@@H]3C[C@@H]3F)cnc12 (stereo partly shown)
Reply | > 0.1 µM

Ask | Also CNc1cc(Nc2cccn(-c3ccc(C(=O)N4CCC(OCC#Cc5ccc6c(c5)n(C)c(=O)n6C5CCC(=O)NC5=O)CC4)cn3)c2=O)nn2c(C(=O)N[C@@H]3C[C@@H]3F)cnc12 (stereo partly shown) , if possible.
Reply | 0.001 to 0.01 µM

Ask | Also Cn1c(=O)n(C2CCC(=O)NC2=O)c2ccc(CCCCNC(=O)c3ccc(-n4cccc(Nc5ccc6ncc(C(=O)N[C@@H]7C[C@@H]7F)n6n5)c4=O)nc3)cc21 (stereo partly shown) , if possible.
Reply | > 0.1 µM

Ask | Also CNc1cc(Nc2cccc(-c3ccc(CN4CCC(C#Cc5cccc6c5n(C)c(=O)n6C5CCC(=O)NC5=O)CC4)cn3)c2)nn2c(C(=O)N[C@@H]3C[C@@H]3F)cnc12 (stereo partly shown) , if possible.
Reply | > 0.1 µM

Ask | Also CNc1cc(Nc2cccn(C3CCN(C(=O)NCCCCCCCCCCc4ccc5c(c4)n(C)c(=O)n5C4CCC(=O)NC4=O)CC3)c2=O)nn2c(C(=O)N[C@@H]3C[C@@H]3F)cnc12 (stereo partly shown) , if possible.
Reply | 0.001 to 0.01 µM

Ask | Also CNc1cc(Nc2cccn(-c3ccc(C(=O)N(C)CC4CCN(c5ccc6c(c5)n(C)c(=O)n6C5CCC(=O)NC5=O)CC4)cn3)c2=O)nn2c(C(=O)N[C@@H]3C[C@@H]3F)cnc12 (stereo partly shown) , if possible.
Reply | < 0.001 µM

Ask | Also CNc1cc(Nc2cccn(-c3ccc(CN4CC5(C4)CN(c4ccc(-c6ccc7c(c6)n(C)c(=O)n7C6CCC(=O)NC6=O)cc4)C5)cn3)c2=O)nn2c(C(=O)N[C@@H]3C[C@@H]3F)cnc12 (stereo partly shown) , if possible.
Reply | > 0.1 µM

Ask | Also CNc1cc(N2CCc3c(-c4cc(CN5CCN(c6ccc(-c7ccc8c(c7)n(C)c(=O)n8C7CCC(=O)NC7=O)cc6)CC5)ccn4)cccc32)nn2c(C(=O)N[C@@H]3C[C@@H]3F)cnc12 (stereo partly shown) , if possible.
Reply | > 0.1 µM

---
Ask | Form entry - test system: TYK2 (Homo sapiens); read-out: DC50; molecule: CNC(=O)c1cnc(Nc2ccc(CN(C)CCCOC3CC(c4cccc5c4n(C)c(=O)n5C4CCC(=O)NC4=O)C3)cn2)cc1Nc1cccc(-c2ncc(F)cn2)c1OC (stereo not shown)
Reply | < 0.001 µM

Ask | Also CNc1cc(Nc2cccn(-c3ccc(C(=O)NCCCCc4ccc5c(c4)n(C)c(=O)n5C4CCC(=O)NC4=O)cn3)c2=O)nn2c(C(N)=O)cnc12 (stereo not shown) , if possible.
Reply | > 0.1 µM

Ask | Also CNc1cc(Nc2cccn(-c3ccc(C(=O)N4CCC45CN(c4ncc(C#Cc6ccc7c(c6)n(C)c(=O)n7C6CCC(=O)NC6=O)cn4)C5)cn3)c2=O)nn2c(C(=O)N[C@@H]3C[C@@H]3F)cnc12 (stereo partly shown) , if possible.
Reply | 0.01 to 0.1 µM

Ask | Also CNc1cc(Nc2cccn(-c3ccc(C(=O)NCCCCc4ccc5c(c4)n(C)c(=O)n5C4CCC(=O)NC4=O)cn3)c2=O)nn2c(C(=O)NC3CC3)cnc12 (stereo not shown) , if possible.
Reply | > 0.1 µM

Ask | Also CNc1cc(Nc2ccccc2C(=O)NCCCCCCc2cccc3c2n(C)c(=O)n3C2CCC(=O)NC2=O)nn2c(C(=O)N[C@@H]3C[C@@H]3F)cnc12 (stereo partly shown) , if possible.
Reply | > 0.1 µM

Data credit: patent US20250051338A1
